From: patent US10695296B2

test: PK characteristics in humans (plasma, LC/MS/MS); assay type: in vivo, human; conditions: human, plasma, oral, 40 mg, steady state, 40 QD mg, n=2, mean, cancer patients; read-out: Tmax

smiles.text	measurement.unit	Tmax
Nc1cc(C(F)(F)F)c(-c2nc(N3CCOCC3)c3nc(-c4cccc(NS(=O)(=O)CCCF)c4F)ccc3n2)cn1	h	4

----------
Assay: PK characteristics in humans (plasma, LC/MS/MS)
Format: in vivo, human
Conditions: human, plasma, oral, 400 mg, Day 1, 400 QD mg, n=2, mean; read-out: AUC0-24
Experimental: A pharmaceutical formulation of the disclosure comprising the active ingredient N-(3-(2-(6-amino-4-(trifluoromethyl)pyridin-3-yl)-4-morpholinopyrido[3,2-d]pyrimidin-6-yl)-2-fluorophenyl)-3-fluoropropane-1-sulfonamide was evaluated for safety/tolerability and preliminary efficacy in eligible human subjects with advanced solid tumors, and the pharmacokinetic (PK) profile of the active ingredient was investigated for each subject. Eligibility criteria for inclusion in this study included: […]

smiles.text	measurement.unit	AUC(0-t)
Nc1cc(C(F)(F)F)c(-c2nc(N3CCOCC3)c3nc(-c4cccc(NS(=O)(=O)CCCF)c4F)ccc3n2)cn1	ng·h/mL	15000

----------
assay: PK characteristics in humans (plasma, LC/MS/MS); type: in vivo, human; conditions: human, plasma, oral, 80 mg, Day 15, 80 mg, individual subject (other NC); read-out: T1/2 (converted)
parameter.measured: half-life

smiles.text	parameter.measured	result
Nc1cc(C(F)(F)F)c(-c2nc(N3CCOCC3)c3nc(-c4cccc(NS(=O)(=O)CCCF)c4F)ccc3n2)cn1	half-life	48.7 h

----------
experiment: PK characteristics in humans (plasma, LC/MS/MS); type: in vivo, human; settings: human, plasma, oral, 400 mg, Day 15, 400 QD mg, n=2, mean; read-out: Cmax
parameter.measured: Cmax (ng/mL)

smiles.text	parameter.measured	result
Nc1cc(C(F)(F)F)c(-c2nc(N3CCOCC3)c3nc(-c4cccc(NS(=O)(=O)CCCF)c4F)ccc3n2)cn1	Cmax	2850

----------
experiment: PK characteristics in humans (plasma, LC/MS/MS); format: in vivo, human; settings: human, plasma, oral, 20 mg, Day 15, 20 mg, n=1; read-out: Tmax
parameter.measured: Tmax (h)

molecule	parameter.measured	measurement.unit	result
Nc1cc(C(F)(F)F)c(-c2nc(N3CCOCC3)c3nc(-c4cccc(NS(=O)(=O)CCCF)c4F)ccc3n2)cn1 [CMPD A]	Tmax	h	8

----------
assay: PK characteristics in humans (plasma, LC/MS/MS); type: in vivo, human; details: human, plasma, oral, 120 mg, Day 1, 120 mg, n=3; read-out: Tmax

smiles.text	Tmax, h
Nc1cc(C(F)(F)F)c(-c2nc(N3CCOCC3)c3nc(-c4cccc(NS(=O)(=O)CCCF)c4F)ccc3n2)cn1	4

----------
experiment: PK characteristics in humans (plasma, LC/MS/MS); format: in vivo, human; settings: human, plasma, oral, 400 mg, Day 1, 400 bid mg, mean; read-out: Tmax

smiles.text	Tmax / h
Nc1cc(C(F)(F)F)c(-c2nc(N3CCOCC3)c3nc(-c4cccc(NS(=O)(=O)CCCF)c4F)ccc3n2)cn1	6

----------
assay: PK characteristics in humans (plasma, LC/MS/MS); assay type: in vivo, human; settings: human, plasma, oral, 80 mg, steady state, 80 QD mg, n=2, mean, cancer patients; read-out: AUC0-24h
parameter.measured: AUC(0-t) (ng·h/mL)

smiles.text	result
Nc1cc(C(F)(F)F)c(-c2nc(N3CCOCC3)c3nc(-c4cccc(NS(=O)(=O)CCCF)c4F)ccc3n2)cn1	20100
